Value source: PubChem BioAssay (Tox21)

test-details: qHTS assay for small molecule agonists of the antioxidant response element (ARE) signaling pathway - cell viability counter screen (AID 743203); further: nearly all actives have a fitted effect of over 55% in size
condition-notes: ARE-bla HepG2 viability, CellTiter-Glo luminescence, 16 h; series mostly up to 73.3 µM
Records with an inconclusive call do not appear. Calls of active or inactive are those of the source. The call rests on the fitted dose curve.
Possible outcomes: active, inactive

| compound | label-value |
| --- | --- |
| CCc1ccc(C(=O)C(C)CN2CCCCC2)cc1 (configuration not stated) | inactive |
| OCCCO | inactive |
| O=C1CCCN1CCO | inactive |
| NC(=O)c1cc[n+](CC2=C(C(=O)[O-])N3C(=O)[C@@H](NC(=O)Cc4cccs4)[C@H]3SC2)cc1 | inactive |
| N#C[C@@H]1CC(F)(F)CN1C(=O)CNC1CC2CCC(C1)N2c1ncccn1 (some centres not stated) | inactive |
| CC(C)C[C@H](NC(=O)[C@H](Cc1ccccc1)NC(=O)c1cnccn1)B(O)O | active |
| CCCCOC(=O)CC#N | inactive |
| CCCCCCC/C=C/C=O | inactive |
| OCCOc1cccc(OCCO)c1 | inactive |
| FC(F)(Cl)C(F)(Cl)Cl | inactive |
| CC1=C(C)C(=O)C(C(CCCCCC(=O)O)c2ccccc2)=C(C)C1=O (configuration not stated) | inactive |
| COC(=O)/C=C/C(C)=C\C=C\C(C)=C\C=C\C=C(C)\C=C\C=C(C)\C=C\C(=O)O | inactive |
| CCCCCCCCOCCCN | active |
| CCCC1CCCC(=O)O1 (configuration not stated) | inactive |
| CC/C=C/CCO | inactive |
| CC(O)CN (configuration not stated) | inactive |
| O=C(OCCCCCOC(=O)c1ccccc1)c1ccccc1 | inactive |

###

test-details: Human pregnane X receptor (PXR) small molecule agonists, qHTS cell viability counter screen (AID 1346977); further: nearly all actives have a fitted effect of over 50% in size
condition-notes: PXR-Luc HepG2 viability, CellTiter-Fluor, 24 h; series mostly up to 92.4 µM
Results filed as inconclusive are left out. Active and inactive are the calls of the source. Calls come from the whole dose curve; as a rule, active = well fitted cell-killing curve with a large enough effect in the repeat runs; inconclusive = weak or mixed curves, or effect the other way; inactive = flat fitted curve, though single readings scatter.
Classes used: yes (1) = active, no (0) = inactive

| compound | label-value |
| --- | --- |
| O=S(=O)(O)c1cc(Cl)c(Cl)cc1Cl | no (0) |
| C=CC(=O)NC(C)(C)C | no (0) |
| Cc1cc(C)n(CO)n1 | no (0) |
| Cc1cccc(C)c1NC(=O)CN1CCCC1 | no (0) |
| C(/C=C/C=C/Nc1ccccc1)=Nc1ccccc1 | no (0) |
| CCCCOC(=O)CC#N | no (0) |
| O=C(O)c1ccc2cc(O)ccc2c1 | no (0) |
| CCCCCCCCCCCCSCCOCCO | no (0) |
| CCCC1CCCC(=O)O1 (stereo not drawn) | no (0) |
| CC[C@H](NC(C)C)[C@H](O)c1ccc(O)c2[nH]c(=O)ccc12 | no (0) |
| CO[C@@H]1[C@@H](O[C@@H]2O[C@H](C)[C@@H](O[C@H]3C[C@@](C)(O)[C@@H](O)[C@H](C)O3)[C@H](N(C)C)[C@H]2O)[C@@H](CC=O)C[C@@H](C)[C@@H](O[C@@H]2CC[C@H](N(C)C)[C@@H](C)O2)/C=C/C=C/C[C@@H](C)OC(=O)C[C@H]1OC(C)=O | yes (1) |
| CCC(C(=O)O)c1ccc(N2Cc3ccccc3C2=O)cc1 (stereo not drawn) | no (0) |
| Clc1nc2ccccc2nc1Cl | no (0) |
| CCCCCCCCOCCCN | yes (1) |
| O=C(O)c1cccc(C(=O)O)c1C(=O)O | no (0) |
| CC1(COc2ccc(CC3SC(=O)NC3=O)cc2)CCCCC1 (stereo not drawn) | no (0) |
| O=C1C=CCCC1 | no (0) |
| O=C(O)c1cc(C(=O)O)c(C(=O)O)cc1C(=O)O | no (0) |
| c1ccc(CN(Cc2ccccc2)Cc2ccccc2)cc1 | no (0) |
| C/C(=C\C(C)CC(C)CC(C)C)C1CC(=O)OC1=O (stereo not drawn) | no (0) |
| O=C(O)CCc1nc2ccccc2[nH]1 | no (0) |
| COc1cc(C)c(Cc2cnc(N)nc2N)cc1OC | no (0) |
| CCc1cnc(C(=O)O)c(C(=O)O)c1 | no (0) |

###

system-tested: Nuclear receptor subfamily 1 group I member 2 (Homo sapiens) (UniProt O75469)
Sequence (O75469 whole entry, looked up): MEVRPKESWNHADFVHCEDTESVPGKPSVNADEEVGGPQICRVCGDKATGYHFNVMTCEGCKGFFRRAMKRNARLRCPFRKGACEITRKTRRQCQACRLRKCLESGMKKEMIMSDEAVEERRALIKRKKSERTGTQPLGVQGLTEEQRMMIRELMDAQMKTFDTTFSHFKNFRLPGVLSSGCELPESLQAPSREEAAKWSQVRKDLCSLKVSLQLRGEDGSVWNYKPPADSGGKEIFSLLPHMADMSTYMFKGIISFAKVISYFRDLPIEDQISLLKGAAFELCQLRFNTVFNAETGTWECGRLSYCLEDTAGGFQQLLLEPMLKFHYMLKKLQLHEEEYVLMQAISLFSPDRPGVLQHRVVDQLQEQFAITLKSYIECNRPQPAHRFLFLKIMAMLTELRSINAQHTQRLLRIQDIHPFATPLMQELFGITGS
test-details: Human pregnane X receptor (PXR) small molecule agonists, qHTS assay (AID 1346982); further: nearly all actives have a fitted effect of over 35% in size
condition-notes: PXR-Luc HepG2, CYP3A4 luciferase reporter, 24 h; series mostly up to 92.4 µM
Results filed as inconclusive are left out. Activity calls are given as the source filed them. Calls follow the shape of the dose curve; as a rule, active = well fitted activation curve with a large enough effect in the repeat runs; inconclusive = weak or mixed curves; inactive = no such curve, though single readings can be large or run the other way.
Classes used: y (active), n (inactive)

| molecule | label-value |
| --- | --- |
| Cc1nc2sccn2c(=O)c1CCN1CCC(=C(c2ccc(F)cc2)c2ccc(F)cc2)CC1 | n |
| OCCCO | n |
| O=C(Nc1ccc2c(c1)Cc1ccccc1-2)C(F)(F)F | y |
| C[C@@H](O)[C@H]1C(=O)N2C(C(=O)O)=C(S[C@@H]3CN[C@H](CNS(N)(=O)=O)C3)[C@H](C)[C@H]12 | y |
| C=CC(C)CCC=C(C)C (stereo unspecified) | n |
| O=C(N[C@@H](Cc1ccccc1)[C@@H](O)C(=O)N1C[C@@H](O)[C@@H](O)C1)c1cc2cc(Cl)ccc2[nH]1 | n |

###

system-tested: Nuclear receptor subfamily 1 group I member 2 (Homo sapiens) (UniProt O75469)
test-details: Human pregnane X receptor (PXR) small molecule agonists, qHTS assay (AID 1346982); further: nearly all actives have a fitted effect of over 35% in size
condition-notes: PXR-Luc HepG2, CYP3A4 luciferase reporter, 24 h; series mostly up to 92.4 µM
Results filed as inconclusive are left out. Calls of active or inactive are those of the source. Calls follow the shape of the dose curve; as a rule, active = well fitted activation curve with a large enough effect in the repeat runs; inconclusive = weak or mixed curves; inactive = no such curve, though single readings can be large or run the other way.
Outcomes: 1 = active, -1 = inactive

| compound | system-tested | label-value |
| --- | --- | --- |
| Clc1cc(Cl)c2c(c1)N=C1CCCCCN1C2 | Nuclear receptor subfamily 1 group I member 2 (Homo sapiens) (UniProt O75469) | 1 |
| CC1(C)CC(O)CC(C)(C)N1[O] | Nuclear receptor subfamily 1 group I member 2 (Homo sapiens) (UniProt O75469) | -1 |
| COc1ccc(/C(C)=C/C(=O)O)c(OC)c1 | Nuclear receptor subfamily 1 group I member 2 (Homo sapiens) (UniProt O75469) | -1 |
| O=C(OC1C[C@H]2CC[C@@H](C1)[N+]21CCCC1)C(O)(c1ccccc1)c1ccccc1 (stereo partly drawn) | Nuclear receptor subfamily 1 group I member 2 (Homo sapiens) (UniProt O75469) | -1 |
| NC(=O)c1cc[n+](CC2=C(C(=O)[O-])N3C(=O)[C@@H](NC(=O)Cc4cccs4)[C@H]3SC2)cc1 | Nuclear receptor subfamily 1 group I member 2 (Homo sapiens) (UniProt O75469) | -1 |
| Nc1ccc(F)cc1F | Nuclear receptor subfamily 1 group I member 2 (Homo sapiens) (UniProt O75469) | -1 |
| COc1ccc(/C=C/S(=O)(=O)NC(=O)c2ccc(C)cc2Cl)cc1 | Nuclear receptor subfamily 1 group I member 2 (Homo sapiens) (UniProt O75469) | 1 |
| CC1(C)C(=O)NC(=O)N1CO | Nuclear receptor subfamily 1 group I member 2 (Homo sapiens) (UniProt O75469) | -1 |
| O=C(O)c1cccc(C(=O)O)c1C(=O)O | Nuclear receptor subfamily 1 group I member 2 (Homo sapiens) (UniProt O75469) | -1 |
| C[C@H](CN1CCCC1)C(=O)c1ccc(C(F)(F)F)cc1 | Nuclear receptor subfamily 1 group I member 2 (Homo sapiens) (UniProt O75469) | 1 |
| O=c1[nH]nc(-c2ccc([N+](=O)[O-])o2)o1 | Nuclear receptor subfamily 1 group I member 2 (Homo sapiens) (UniProt O75469) | 1 |
| CC(=O)c1ccc(Cl)c(Cl)c1Cl | Nuclear receptor subfamily 1 group I member 2 (Homo sapiens) (UniProt O75469) | -1 |
| Cc1c(-c2cccnc2)c2ccccc2n1CCCCC(=O)O | Nuclear receptor subfamily 1 group I member 2 (Homo sapiens) (UniProt O75469) | -1 |
| FC(F)(Cl)C(F)(Cl)Cl | Nuclear receptor subfamily 1 group I member 2 (Homo sapiens) (UniProt O75469) | -1 |
| O=C(O)c1cccnc1Nc1cccc(C(F)(F)F)c1 | Nuclear receptor subfamily 1 group I member 2 (Homo sapiens) (UniProt O75469) | 1 |
| CC(C)=CCCC(C)C=O (stereo not drawn) | Nuclear receptor subfamily 1 group I member 2 (Homo sapiens) (UniProt O75469) | -1 |
| O=C(OCCOCCOCCOC(=O)c1ccccc1)c1ccccc1 | Nuclear receptor subfamily 1 group I member 2 (Homo sapiens) (UniProt O75469) | 1 |
| Cc1cc(SC2=C(O)C[C@@](CCc3ccc(N)cc3)(C(C)C)OC2=O)c(C(C)(C)C)cc1CO | Nuclear receptor subfamily 1 group I member 2 (Homo sapiens) (UniProt O75469) | 1 |
| Cc1ccc(S(=O)(=O)NC(=O)NC2CCCC2)cc1 | Nuclear receptor subfamily 1 group I member 2 (Homo sapiens) (UniProt O75469) | -1 |
| COc1cc(C)c(Cc2cnc(N)nc2N)cc1OC | Nuclear receptor subfamily 1 group I member 2 (Homo sapiens) (UniProt O75469) | -1 |
| N#C[C@@H]1CC(F)(F)CN1C(=O)CNC1CC2CCC(C1)N2c1ncccn1 (stereo partly drawn) | Nuclear receptor subfamily 1 group I member 2 (Homo sapiens) (UniProt O75469) | -1 |
| COC(=O)C(C)(C)C | Nuclear receptor subfamily 1 group I member 2 (Homo sapiens) (UniProt O75469) | -1 |
| CCCC(=O)OCCC(C)C | Nuclear receptor subfamily 1 group I member 2 (Homo sapiens) (UniProt O75469) | -1 |
| O=C(O)c1ccc2cc(O)ccc2c1 | Nuclear receptor subfamily 1 group I member 2 (Homo sapiens) (UniProt O75469) | -1 |
| CCOc1cc(OCC)c(C(C)=O)cc1OCC | Nuclear receptor subfamily 1 group I member 2 (Homo sapiens) (UniProt O75469) | 1 |
| O=C(O)c1c2ccccc2cc2ccccc12 | Nuclear receptor subfamily 1 group I member 2 (Homo sapiens) (UniProt O75469) | -1 |
| CCC(CC)C(=O)O | Nuclear receptor subfamily 1 group I member 2 (Homo sapiens) (UniProt O75469) | -1 |
| CCC(C)CCCC(C)(C)O (stereo not drawn) | Nuclear receptor subfamily 1 group I member 2 (Homo sapiens) (UniProt O75469) | -1 |
| O=C1c2ccccc2C(=O)C1c1ccc2ccccc2n1 | Nuclear receptor subfamily 1 group I member 2 (Homo sapiens) (UniProt O75469) | 1 |
| Oc1ccc(Oc2ccccc2)cc1 | Nuclear receptor subfamily 1 group I member 2 (Homo sapiens) (UniProt O75469) | 1 |
| CC(C)CC(C)(C)C | Nuclear receptor subfamily 1 group I member 2 (Homo sapiens) (UniProt O75469) | -1 |
| CC(C)Oc1ccccc1O | Nuclear receptor subfamily 1 group I member 2 (Homo sapiens) (UniProt O75469) | -1 |
| CCOc1ccc(NC(C)=O)cc1N | Nuclear receptor subfamily 1 group I member 2 (Homo sapiens) (UniProt O75469) | 1 |
| COc1ccc(CN(CCN(C)C)c2ncccn2)cc1 | Nuclear receptor subfamily 1 group I member 2 (Homo sapiens) (UniProt O75469) | -1 |
| SCCOCCOCCS | Nuclear receptor subfamily 1 group I member 2 (Homo sapiens) (UniProt O75469) | 1 |
| CC1(C)CC(=O)CC(C)(C)N1 | Nuclear receptor subfamily 1 group I member 2 (Homo sapiens) (UniProt O75469) | -1 |
| [O-][n+]1ccc(Cl)cc1 | Nuclear receptor subfamily 1 group I member 2 (Homo sapiens) (UniProt O75469) | -1 |
| Cc1nc(C)c(C)nc1C | Nuclear receptor subfamily 1 group I member 2 (Homo sapiens) (UniProt O75469) | -1 |
